Measured values drawn from patent US10556907B2 for this set.

# experimental target: human S1PR5 receptor (Homo sapiens)
# Construct: host or cells: CHO-K1
# assay comment: Method 1: intracellular Ca2+ release (FLIPR, Calcium 5) in recombinant CHO-K1 cells
# Type: cell-based
# condition info: agonist potency, determined with method 1 (symbols A-D); read-out: S1P5 EC50 range
Listing of recorded EC50 by entry.

Below: 3 compounds and their reported EC50.
Looking up Cc1cc(-c2ccc3c(n2)CCN(CC(=O)O)C3)ccc1OCc1ccc(C(F)(F)F)cc1 [Compound 112] , I see its EC50 listed as 100 to 1000 nM

Looking up Cc1ccccc1COc1ccc(-c2ncc3c(n2)CCN(C[C@@H](C)CC(=O)O)C3)cc1C [Compound 249] , I see its EC50 listed as < 10 nM

Looking up CC(C)c1ccc(C#Cc2ccc3c(n2)CCN(C2CC(C(=O)O)C2)C3)cc1 (centres unmarked) [Compound 124] , I see its EC50 listed as 1000 to 10000 nM

Continue with the next compound.
Looking up O=C(O)CCN1CCc2nc(-c3ccc(OCc4ccc(C(F)F)cc4)cc3)ccc2C1 [Compound 166] , I see its EC50 listed as < 10 nM

====

Listing of recorded pEC50 by entry.
# experimental target: human S1PR5 receptor (Homo sapiens, UniProt Q9H228)
# Construct: host or cells: CHO-K1
# Sequence (Q9H228 whole entry): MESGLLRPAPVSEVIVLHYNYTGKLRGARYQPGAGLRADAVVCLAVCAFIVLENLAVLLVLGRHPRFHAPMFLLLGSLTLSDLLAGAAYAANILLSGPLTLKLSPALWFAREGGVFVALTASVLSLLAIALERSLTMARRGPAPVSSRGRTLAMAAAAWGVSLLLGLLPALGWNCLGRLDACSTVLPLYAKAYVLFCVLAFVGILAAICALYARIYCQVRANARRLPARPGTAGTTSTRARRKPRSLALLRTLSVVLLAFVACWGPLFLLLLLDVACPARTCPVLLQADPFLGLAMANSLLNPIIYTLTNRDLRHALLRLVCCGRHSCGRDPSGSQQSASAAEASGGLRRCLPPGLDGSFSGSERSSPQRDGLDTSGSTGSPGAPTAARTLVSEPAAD
# assay comment: Method 1: intracellular Ca2+ release (FLIPR, Calcium 5) in recombinant CHO-K1 cells
# Type: cell-based
# condition info: agonist potency, determined with method 1 (symbols A-D); read-out: S1P5 EC50 range
pEC50: −log10 of the molar value.

The reported human S1PR5 receptor (Homo sapiens, UniProt Q9H228) pEC50 of CC(C)Oc1ccc(-c2ncc3c(n2)CCN(CCCC(=O)O)C3)cc1Cl is 5.00 to 6.00

The reported human S1PR5 receptor (Homo sapiens, UniProt Q9H228) pEC50 of O=C(O)CCN1CCc2nc(-c3ccc(OCc4cccc(Cl)c4)cc3)c(F)cc2C1 is > 8.00

Continuing:
The reported human S1PR5 receptor (Homo sapiens, UniProt Q9H228) pEC50 of Cc1cc(-c2ncc3c(n2)CCN(C[C@@H](C)CC(=O)O)C3)ccc1OCc1ccc(Cl)cc1 is 7.00 to 8.00

The reported human S1PR5 receptor (Homo sapiens, UniProt Q9H228) pEC50 of Cc1cc(-c2ncc3c(n2)CCN(CC(C)CC(=O)O)C3)ccc1OCc1cccc(F)c1F (stereo not shown) is > 8.00

The reported human S1PR5 receptor (Homo sapiens, UniProt Q9H228) pEC50 of C[C@H](CC(=O)O)C(=O)N1CCc2nc(-c3ccc(OCc4ccc(Cl)cc4)cc3)ncc2C1 is 5.00 to 6.00

The reported human S1PR5 receptor (Homo sapiens, UniProt Q9H228) pEC50 of CC(C)(CC(=O)O)CN1CCc2nc(-c3ccc(OCc4ccc(Cl)cc4)cc3)ncc2C1 is 5.00 to 6.00

====

Listing of recorded EC50 by entry.
# experimental target: human S1PR5 receptor (Homo sapiens, UniProt Q9H228)
# Construct: host or cells: CHO-K1
# assay comment: Method 1: intracellular Ca2+ release (FLIPR, Calcium 5) in recombinant CHO-K1 cells
# Assay type: cell-based
# condition info: agonist potency, determined with method 1 (symbols A-D); read-out: S1P5 EC50 range

The reported human S1PR5 receptor (Homo sapiens, UniProt Q9H228) EC50 of O=C(O)CCN1CCc2nc(-c3ccc(OCc4cccc(F)c4)cc3F)ccc2C1 is 10 to 100 nM

The reported human S1PR5 receptor (Homo sapiens, UniProt Q9H228) EC50 of O=C(O)C1CC(N2CCc3nc(C#Cc4ccc(Cl)cc4)ncc3C2)C1 (centres unmarked) is 1000 to 10000 nM

The reported human S1PR5 receptor (Homo sapiens, UniProt Q9H228) EC50 of CC(CN1CCc2nc(-c3ccc(OCc4ccc(F)c(F)c4)cc3)ncc2C1)C(=O)O (centres unmarked) is < 10 nM

Continuing:
The reported human S1PR5 receptor (Homo sapiens, UniProt Q9H228) EC50 of CC(CC(=O)O)CN1CCc2nc(-c3ccc(OCc4ccc(C(F)(F)F)cc4)cc3)ncc2C1 (centres unmarked) is < 10 nM

The reported human S1PR5 receptor (Homo sapiens, UniProt Q9H228) EC50 of CC(CC(=O)O)CN1CCc2nc(-c3ccc(OCc4c(F)cccc4F)cc3F)ncc2C1 (centres unmarked) is < 10 nM

The reported human S1PR5 receptor (Homo sapiens, UniProt Q9H228) EC50 of CC(C)(C)c1ccc(COc2ccc(-c3ncc4c(n3)CCN(CCC(=O)O)C4)cc2)cc1 is 10 to 100 nM

The reported human S1PR5 receptor (Homo sapiens, UniProt Q9H228) EC50 of Cc1ccc(C(F)(F)F)cc1COc1ccc(-c2ncc3c(n2)CCN(CC(C)CC(=O)O)C3)cc1C (centres unmarked) is 100 to 1000 nM

The reported human S1PR5 receptor (Homo sapiens, UniProt Q9H228) EC50 of Cc1cccc(C)c1COc1ccc(-c2ncc3c(n2)CCN(CC(C)C(=O)O)C3)cc1 (centres unmarked) is < 10 nM

The reported human S1PR5 receptor (Homo sapiens, UniProt Q9H228) EC50 of CCc1cccc(Cl)c1COc1ncc2c(n1)CCN(CCC(=O)O)C2 is 1000 to 10000 nM

====

# experimental target: human EDG8 (S1PR5) receptor (Homo sapiens)
# assay comment: Method 2: Aequorin assay, cell clone CHO-A21-EDG8 #12
# condition info: agonist potency, determined with method 2 (symbols E-G); read-out: S1P5 EC50 range
pEC50: −log10 of the molar value.
reported metric: pEC50

Below: 3 molecules and their reported pEC50.
The reported human EDG8 (S1PR5) receptor (Homo sapiens) pEC50 of CC(CN1CCc2nc(-c3ccc(OCc4cc(F)cc(F)c4)cc3)ncc2C1)C(=O)O (stereo not shown) [Compound 9] is 6.00 to 7.00

The reported human EDG8 (S1PR5) receptor (Homo sapiens) pEC50 of COc1cc(OCc2ccccc2)ccc1-c1ccc2c(n1)CCN(CCC(=O)O)C2 [Compound 138] is 5.00 to 6.00

The reported human EDG8 (S1PR5) receptor (Homo sapiens) pEC50 of O=C(O)C1CC(N2CCc3nc(-c4ccc(OCc5cccc(F)c5)cc4)ncc3C2)C1 (stereo not shown) [Compound 52] is 5.00 to 6.00

Continue with the next molecule.
The reported human EDG8 (S1PR5) receptor (Homo sapiens) pEC50 of O=C(O)CCN1CCc2nc(-c3ccc(OCc4cccc(F)c4F)cc3)ccc2C1 [Compound 131] is > 7.00

====

# experimental target: human S1PR1 receptor (Homo sapiens)
# Sequence (P21453 whole entry): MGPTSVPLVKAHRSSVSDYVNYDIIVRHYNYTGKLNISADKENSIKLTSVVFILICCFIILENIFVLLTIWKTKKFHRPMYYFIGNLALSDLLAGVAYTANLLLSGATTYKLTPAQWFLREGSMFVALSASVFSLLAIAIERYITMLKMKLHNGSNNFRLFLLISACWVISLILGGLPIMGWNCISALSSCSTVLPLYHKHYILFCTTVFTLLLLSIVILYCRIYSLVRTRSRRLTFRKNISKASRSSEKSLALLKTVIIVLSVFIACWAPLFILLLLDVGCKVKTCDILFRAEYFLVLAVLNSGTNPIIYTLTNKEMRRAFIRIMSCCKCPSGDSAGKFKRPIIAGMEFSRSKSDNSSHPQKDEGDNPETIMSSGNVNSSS
# assay comment: Method 1: intracellular Ca2+ release (FLIPR, Calcium 5) in recombinant CHO-K1 cells
# condition info: (1): determined with method 1; read-out: S1P1 EC50
# Procedure: Agonistic activity was measured using two different methods, described below. Method 1. Intracellular Ca^2+ Release Agonist potency and intrinsic activity was assessed by measurement of intracellular Ca^2+ release. […]
reported metric: EC50

Below: 2 compounds and their reported EC50.
Looking up CC(CC(=O)O)CN1CCc2nc(-c3ccc(CCc4ccc(Cl)cc4)cc3F)ncc2C1 (stereo not drawn) , I see its EC50 listed as > 1000 nM

Looking up CC(C)(CC(=O)O)CN1CCc2nc(-c3ccc(OCc4ccc(Cl)cc4)cc3)ncc2C1 , I see its EC50 listed as > 1000 nM

Continue with the next compound.
Looking up CC(CC(=O)O)CN1CCc2nc(-c3ccc(CCc4ccc(Cl)cc4)cc3)ncc2C1 (stereo not drawn) , I see its EC50 listed as > 1000 nM

====

# experimental target: human S1PR5 receptor (Homo sapiens)
# Construct: host or cells: CHO-K1
# assay comment: Method 1: intracellular Ca2+ release (FLIPR, Calcium 5) in recombinant CHO-K1 cells
# Type: cell-based
# condition info: agonist potency, determined with method 1 (symbols A-D); read-out: S1P5 EC50 range
Listing of recorded EC50 by entry.

Below: 3 compounds and their reported EC50.
Looking up O=C(O)CCN1CCc2nc(-c3ccc(OCc4cccc(C(F)(F)F)c4)cc3)c(F)cc2C1 , I see its EC50 listed as < 10 nM

Looking up Cc1ccc(C(F)(F)F)cc1COc1ccc(-c2ncc3c(n2)CCN(CC(C)CC(=O)O)C3)c(F)c1 (stereo not shown) , I see its EC50 listed as 10 to 100 nM

Looking up Cc1cc(-c2ccc3c(n2)CCN(CCCC(=O)O)C3)ccc1OCc1ccccc1 , I see its EC50 listed as < 10 nM

Continue with the next compound.
Looking up Cc1ccccc1COc1ccc(-c2ncc3c(n2)CCN(C[C@H](C)CC(=O)O)C3)cc1C , I see its EC50 listed as 100 to 1000 nM

====

# experimental target: human S1PR4 receptor (Homo sapiens)
# Sequence (O95977 whole entry): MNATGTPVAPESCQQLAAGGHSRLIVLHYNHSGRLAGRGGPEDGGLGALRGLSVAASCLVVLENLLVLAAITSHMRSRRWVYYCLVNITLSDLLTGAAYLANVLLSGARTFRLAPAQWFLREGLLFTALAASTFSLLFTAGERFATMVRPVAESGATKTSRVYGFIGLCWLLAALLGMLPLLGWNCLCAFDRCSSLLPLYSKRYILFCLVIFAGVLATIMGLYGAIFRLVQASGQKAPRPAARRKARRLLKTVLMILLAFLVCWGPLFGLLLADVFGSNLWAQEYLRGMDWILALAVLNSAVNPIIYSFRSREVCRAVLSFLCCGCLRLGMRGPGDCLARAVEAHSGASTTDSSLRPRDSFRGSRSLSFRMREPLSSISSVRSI
# assay comment: Method 1: intracellular Ca2+ release (FLIPR, Calcium 5) in recombinant CHO-K1 cells
# condition info: (1): determined with method 1; read-out: S1P4 EC50
Listing of recorded EC50 by entry.

Looking up CC(CC(=O)O)CN1CCc2nc(-c3ccc(C4CC4c4cccc(Cl)c4)cc3)ncc2C1 (centres unmarked) , I see its EC50 listed as > 1 µM

Continue with the next compound.
Looking up Cc1cc(-c2ncc3c(n2)CCN(CC(C)CC(=O)O)C3)ccc1OCc1c(F)cccc1F (centres unmarked) , I see its EC50 listed as < 1 µM
